Hi there, I'd appreciate the recorded Kd for every entry that follows.
# SYSTEM: Bromodomain testis-specific protein (Homo sapiens)
# PROCEDURE DETAILS: Binding affinity to N-terminal hexa-histidine tagged BRDT-T (2 to 416 residues) (unknown origin) expressed in Escherichia coli BL21(DE3) cells
The answer should read as a number with its unit following.

### Prompt What does the record list as Kd for "Cc1cnc(Nc2ccc(C(=O)NC3CCN(C)CC3)c(F)c2)nc1Nc1ccc(Cl)c(NS(=O)(=O)C(C)(C)C)c1" ?
### Response 18 nM

### Prompt What does the record list as Kd for "Cc1cnc(Nc2ccc(C(=O)NC3CCN(C(=O)COCCOCCOCC(=O)N4CCC(NC(=O)c5ccc(Nc6ncc(C)c(Nc7ccc(Cl)c(NS(=O)(=O)C(C)(C)C)c7)n6)cc5F)CC4)CC3)c(F)c2)nc1Nc1ccc(Cl)c(NS(=O)(=O)C(C)(C)C)c1" ?
### Response 2.6 nM

### Prompt What does the record list as Kd for "Cc1cnc(Nc2ccc(C(=O)NC3CCN(C(=O)CCOCCOCCOCCOCCOCCC(=O)N4CCC(NC(=O)c5ccc(Nc6ncc(C)c(Nc7ccc(Cl)c(NS(=O)(=O)C(C)(C)C)c7)n6)cc5F)CC4)CC3)c(F)c2)nc1Nc1ccc(Cl)c(NS(=O)(=O)C(C)(C)C)c1" ?
### Response 0.8 nM

### Prompt What does the record list as Kd for "CCS(=O)(=O)Nc1ccc(Oc2ccc(Cl)cc2)c(-c2cn(C)c(=O)c3ccccc23)c1" ?
### Response 6 nM

### Prompt What does the record list as Kd for "Cc1cnc(Nc2ccc(C(=O)NC3CCN(C(=O)CCOCCOCCOCCOCCC(=O)N4CCC(NC(=O)c5ccc(Nc6ncc(C)c(Nc7ccc(Cl)c(NS(=O)(=O)C(C)(C)C)c7)n6)cc5F)CC4)CC3)c(F)c2)nc1Nc1ccc(Cl)c(NS(=O)(=O)C(C)(C)C)c1" ?
### Response 1.55 nM
